// provenance: ChEMBL document CHEMBL3044597

# system_under_test: Beta-lactamase (Pseudomonas aeruginosa)
# Sequence (Q79MP6 whole entry): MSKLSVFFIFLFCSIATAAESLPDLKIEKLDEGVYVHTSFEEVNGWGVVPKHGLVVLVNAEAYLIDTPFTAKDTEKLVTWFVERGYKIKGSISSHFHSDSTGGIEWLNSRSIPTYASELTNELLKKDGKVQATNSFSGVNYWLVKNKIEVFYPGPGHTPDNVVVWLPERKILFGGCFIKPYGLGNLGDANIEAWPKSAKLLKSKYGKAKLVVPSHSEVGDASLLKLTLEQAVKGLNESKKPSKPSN
# experimental_protocol: Inhibition of Pseudomonas aeruginosa IMP1 metallo-beta-lactamase
observed_property: IC50 (nM)

Worked set:
C=CCOC(=O)N[C@H](C)C(=O)S[C@@H](C)Cc1ccc2oc3ccccc3c2c1 2900
O=C(O)[C@@H](Cc1ccccc1)[C@H](Cc1ccccc1)C(=O)O 2.7
C[C@@H](Cc1ccc(-c2ccccc2)cc1)SC(=O)[C@@H](C)NC(=O)Cc1ccc(N(C)C)cc1 55000

a. C[C@@H](Cc1ccc(-c2ccccc2)cc1)SC(=O)[C@@H](C)NC(=O)c1ccccc1
b. C[C@@H](c1ccccc1)[C@H](C(=O)O)[C@H](Cc1ccccc1)C(=O)O
c. C[C@@H](Cc1ccc(-c2ccccc2)cc1)SC(=O)[C@@H](C)NC(=O)CSCC(=O)O
d. C[C@@H](Cc1ccc(-c2ccccc2)cc1)SC(=O)[C@@H](C)NC(=O)Cc1cccnc1
e. O=C(O)[C@H](Cc1ccccc1)[C@@H](Cc1ccccc1)C(=O)O
[ask] Please produce an ascending ranking of these compounds based on IC50. Provide the labels, sequenced as the question asks.
[reply] b, e, a, c, d
(b: 13 nM, e: 210 nM, a: 3600 nM, c: 13000 nM, d: 32000 nM)
